system: MDA-MB-231; assay: NCI tumour cell line growth inhibition, 48 h
The source made the active and inactive calls. Rule as the data show it: active = GI50 up to about 1.1 µM and inactive = higher.
Returns: one label drawn from Yes = active, No = inactive

Completed entries (count: 3):
Molecule: O=[N+]([O-])c1ccc2nc3c(nc2c1)-c1c2ccccc2cc2cccc-3c12
Classification: No
//
Molecule: CCOC(=O)N1CCN(c2c(N)nc(C)nc2O)CC1
Classification: No
//
Molecule: CC(C)=CCC[C@@H](C)C1=C(O)C(O)C(C)=C2N=C(c3ccccc3)C(=O)OC21 (some centres not stated)
Classification: No

query: Which outcome was assigned to OC(C1CCCCCCCCCC1)C(O)C1CCCCCCCCCC1 (configuration not stated) in this test?
result: No

query: Which outcome was assigned to "O=[N+]([O-])C(=C1Nc2ccccc2N1)/C(Cl)=C(/Cl)N1CCOCC1" in this test?
result: No

query: Which outcome was assigned to "COc1cc2c(/C=C3/C(=O)Nc4ccccc43)c(Cl)[nH]c2cc1C" in this test?
result: Yes

query: Which outcome was assigned to "Cc1cc(C2(c3cc(C)c(O)c(C(=O)O)c3)OS(=O)(=O)c3ccccc32)cc(C(=O)O)c1O" in this test?
result: No

query: Which outcome was assigned to "Cc1ccc(S(=O)(=O)Nc2ccccc2C=O)cc1" in this test?
result: No

query: Which outcome was assigned to "CN(C)Cc1cc(/N=N/c2ccccc2Cl)ccc1O" in this test?
result: No

---

system: HOP-92; assay: NCI tumour cell line growth inhibition, 48 h
Calls of active or inactive are those of the source. Rule as the data show it: active = GI50 up to about 1.1 µM and inactive = higher.
Observation Type: GI50

Use the examples below as a reference point.
Molecule: Cc1ccc(S(=O)(=O)N2CCN3CCN(CCN(C)CCN4CCN(CC4)CCN(S(=O)(=O)c4ccc(C)cc4)CCN(S(=O)(=O)c4ccc(C)cc4)CCN(S(=O)(=O)c4ccc(C)cc4)CCN(S(=O)(=O)c4ccc(C)cc4)CCN4CCN(CCN(C)CCN5CCN(CC5)CCN(S(=O)(=O)c5ccc(C)cc5)CCN(S(=O)(=O)c5ccc(C)cc5)CCN(S(=O)(=O)c5ccc(C)cc5)CC2)CC4)CC3)cc1
GI50: 1.04 µM (active)
--
Molecule: COc1ccc([C@]23CCC4(OCC(C)(C)CO4)[C@H]4CON(O[C@H](O[C@@H]5CCCCC5C(C)(C)c5ccccc5)C2)[C@@H]43)cc1OC (stereo partly drawn)
GI50: 25.8 µM (inactive)
--
Molecule: CCC(C)NC(=S)N/N=C(\C)c1nc2cccnc2[nH]1 (stereo not drawn)
GI50: 7.18 µM (inactive)
--
Molecule: COc1ccc(CCN2CCC(C#N)(c3ccc(OC)c(OC)c3)CC2)cc1OC
GI50: 13.5 µM (inactive)
--
Molecule: Cc1sc2nc3n(c(=O)c2c1C)N=C(c1ccc(Cl)cc1)CS3
GI50: > 100 µM (inactive)
--
Molecule: CC1=CC(=O)/C(=C/Nc2nc(-c3ccc([N+](=O)[O-])cc3)cs2)C(=O)O1
GI50: > 100 µM (inactive)

So, "C=C(C(=O)OCC)C(=O)OCC" ? Its GI50 was > 100 µM (inactive)

So, "O=c1[nH]nc(-c2ccccc2)n1/N=C/c1ccc([N+](=O)[O-])cc1" ? Its GI50 was 10 µM (inactive)

---

system: KM12; assay: NCI tumour cell line growth inhibition, 48 h
Active and inactive are the calls of the source. No stated cut-off is given here; in the data, active = GI50 up to about 1.1 µM and inactive = higher. Non-standard residues stand in square brackets, D forms with d. Residues, ends and D or L forms follow the SMILES beside them. β3hI = CC[CH](C)[CH](N)CC(=O)O
Observation Type: GI50

Use the examples below as a reference point.
Compound: COc1ccc2c(cnc3c4cc(OC)c(OC)cc4ccc23)c1
GI50: > 100 µM (inactive)
--
Compound: Cc1cc(=O)[nH]c(-n2[nH]c(C)c(CCO)c2=O)n1
GI50: > 100 µM (inactive)
--
Compound: CCCC[N+](CCCC)(CCCC)CCCC.O=S(=O)([O-])ON=C1c2ccccc2-c2ccccc21
GI50: > 100 µM (inactive)

So, CCC(C)C(CC(=O)N1CCCC1C(=O)NC(C(=O)NC(C(=O)NCC(=O)NC(CC(N)=O)C(=O)NC(C(=O)NC(C(=O)NC(CCCCN)C(N)=O)C(C)CC)C(C)CC)C(C)C)C(C)CC)NC(=O)C(N)C(C)CC (stereo not drawn) (H-I[β3hI]PIVGNIIK-NH2; configuration not given here) ? Its GI50 was > 50 µM (inactive)

So, [Zn+2][N+]12CCN3CCN4CCN(CC1)[PH]432 (centres undefined) ? Its GI50 was > 100 µM (inactive)

So, "CC1=CC(=O)/C(=C/Nc2nc(-c3ccc([N+](=O)[O-])cc3)cs2)C(=O)O1" ? Its GI50 was > 100 µM (inactive)

So, COC1OC2COC(C)(C)OC2C2OC(C)(C)OC12 (centres undefined) ? Its GI50 was > 100 µM (inactive)

So, "CCOc1ccc(/N=C/c2cccc3cccnc23)cc1" ? Its GI50 was 39.8 µM (inactive)

So, CC1CC(c2ccccc2)=Nc2ccccc2S1(=O)=O (centres undefined) ? Its GI50 was 16.3 µM (inactive)

---

system: COLO 205; assay: NCI tumour cell line growth inhibition, 48 h
Calls of active or inactive are those of the source. No stated cut-off is given here; in the data, active = GI50 up to about 1.1 µM and inactive = higher.
Here the recorded GI50 is given for each entry.

Compound: O=S(=O)(Nc1nc2ccccc2nc1N1CCCCCC1)c1ccccc1
GI50: > 100 µM (inactive)

Compound: COc1cccc(N2C(=O)C3c4[nH]c5ccc(C)cc5c4C4CCC(C)CC4C3C2=O)c1 (stereo unspecified)
GI50: > 100 µM (inactive)

Compound: O=C(O)CCCCC1CCSS1 (stereo not drawn) [LIPOIC ACID, ALPHA]
GI50: > 100 µM (inactive)

Compound: [Zn+2][N+]12CCN3CCN4CCN(CC1)[PH]432 (stereo unspecified)
GI50: > 100 µM (inactive)

Compound: COc1cc2c(oc(=O)c3c4occc4cc(OC)c23)c2cccc(OCc3ccccc3)c12
GI50: > 100 µM (inactive)

So, "COc1cc2c(OC)cc1CSCc1sc(C)c(c1Br)CSC2" ? Its GI50 was > 100 µM (inactive)

So, O=C(O)/C=C/C(=O)O [FUMARIC ACID] ? Its GI50 was > 100 µM (inactive)

So, "CC(=O)N1C/C(=C\c2ccc(N(C)C)cc2)C(=O)/C(=C/c2ccc(N(C)C)cc2)C1" ? Its GI50 was > 10 µM (inactive)

So, "O=C(O)Cc1c[nH]c2ccc(F)cc12" ? Its GI50 was > 100 µM (inactive)

So, N#CC(C(=O)CCC(=O)Nc1cccc(Cl)c1)c1ccccc1 (stereo unspecified) ? Its GI50 was > 100 µM (inactive)

So, "Cc1ccc2c(=O)c3c(O)c4c(cc3n(C)c2c1)OC(C)(C)C=C4" ? Its GI50 was > 10 µM (inactive)

---

test system: T47D; test: NCI tumour cell line growth inhibition, 48 h
The source made the active and inactive calls. Cut-off read from the data, not from the text of the source: active = GI50 up to about 1.1 µM and inactive = higher.
Returns: one label drawn from active, inactive

Completed entries (count: 5):
Compound: COc1cc2c(cc1OC)C1c3ccccc3CCN1CCC2.[O-][Cl+3]([O-])([O-])O (stereo unspecified)
Target Or System: T47D
Classification: inactive

Compound: OCC(CN1CCCCC1)(CN1CCCCC1)CN1CCCCC1
Target Or System: T47D
Classification: inactive

Compound: CSCCCN(CCCSC)CCCSC
Target Or System: T47D
Classification: inactive

Compound: O=c1oc2c(Br)c(O)c(Br)cc2c2ccccc12
Target Or System: T47D
Classification: inactive

Compound: COc1ccc2c(cnc3c4cc(OC)c(OC)cc4ccc23)c1
Target Or System: T47D
Classification: inactive

query: Which outcome was assigned to "CC(=O)CC1(O)C(=O)c2c(Br)sc(Br)c2C1=O" in this test?
result: inactive

query: Which outcome was assigned to OC(/C(=N/c1ccccc1)c1ccccc1)c1ccccc1 (stereo unspecified) in this test?
result: inactive

query: Which outcome was assigned to "NC(=O)c1cc(N2CC2)c([N+](=O)[O-])cc1[N+](=O)[O-]" in this test?
result: inactive

query: Which outcome was assigned to "C=CCOc1ccc(C(=N/NC(=O)c2ccccc2)/N=N/c2ccccc2)cc1OC" in this test?
result: inactive

query: Which outcome was assigned to CC(C)C1SCc2nc3ccccc3n21 (stereo unspecified) in this test?
result: inactive

---

system: OVCAR-3; assay: NCI tumour cell line growth inhibition, 48 h
The source made the active and inactive calls. No stated cut-off is given here; in the data, active = GI50 up to about 1.1 µM and inactive = higher.
Returns: one label drawn from true (1) = active, false (0) = inactive

Molecule: COc1ccccc1NC(=O)CC(=O)NNCC(=O)Nc1nnc(-c2ccccc2)o1
Classification: false (0)

Molecule: CSc1nc2c(c(=O)n1C)N=C(c1ccc([N+](=O)[O-])cc1)CC(c1ccccc1)N2 (configuration not stated)
Classification: false (0)

Molecule: COc1cc2c(cc1OC)C1c3ccccc3CCN1CCC2.[O-][Cl+3]([O-])([O-])O (configuration not stated)
Classification: false (0)

query: Which outcome was assigned to "O=CN/C=C/c1cccc(O)c1" in this test?
result: false (0)
